Entry source: patent US20260138990A1

Exercise: state measured pIC50 for each of the compounds provided.
target: human CD38 (Homo sapiens); assay: NAD+ cyclase activity assay with human recombinant CD38 protein (ε-NAD fluorescence); conditions: 1.9 nM human CD38, substrate ε-NAD, 30 min preincubation, fluorescence 300/410 nm
Sequence (P28907 whole entry): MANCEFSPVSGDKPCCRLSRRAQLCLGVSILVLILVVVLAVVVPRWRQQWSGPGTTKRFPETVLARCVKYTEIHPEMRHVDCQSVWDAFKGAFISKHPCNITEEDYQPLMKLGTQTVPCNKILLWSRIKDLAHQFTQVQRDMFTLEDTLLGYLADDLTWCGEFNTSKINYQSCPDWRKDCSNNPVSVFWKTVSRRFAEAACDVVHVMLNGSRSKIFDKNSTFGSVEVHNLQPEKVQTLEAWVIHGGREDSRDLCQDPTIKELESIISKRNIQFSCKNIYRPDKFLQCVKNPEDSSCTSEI
pIC50: −log10 of the molar value.

Examples with answers:
1) O=C(NC1CCCC(C(F)(F)F)C1)c1cc(F)c2c(c1)-c1cncn1CCO2 (stereo not shown) [Compound 161A]; > 7.52
2) CO[C@H]1CC[C@H](NC(=O)c2ccc3c(c2)-c2cncn2CCO3)CC1 [Compound 20A]; > 7.52
3) COC(C)(C)CO[C@H]1CC[C@@H](NC(=O)c2ccc3c(c2)-c2cncn2CCO3)CC1 [Compound 128A]; 6.00 to 7.00

Request - read-out pIC50 | tested on human CD38 (Homo sapiens) | compound O=C(N[C@H]1CCCC(F)(F)C1)c1ccc2c(c1)-c1cncn1CCO2 [Compound 117A] 7.00 to 7.52

###

target: human CD38 (Homo sapiens); experiment: NAD+ cyclase activity assay with human recombinant CD38 protein (ε-NAD fluorescence); conditions: 1.9 nM human CD38, substrate ε-NAD, 30 min preincubation, fluorescence 300/410 nm
pIC50: −log10 of the molar value.
Exercise: state measured pIC50 for each of the compounds provided.

For each of the compounds below, note its pIC50.
1. O=C(Nc1ccc2c(c1)COC2)c1ccc2c(c1)-c1cncn1CCO2 [Compound 33A]
2. O=C(N[C@H]1CC[C@@H](O[C@H]2C[C@@H](F)C2)CC1)c1ccc2c(c1)-c1cncn1CCO2 [Compound 149A]
3. O=C(Nc1cnc2c(c1)OCCO2)c1cc(F)c2c(c1)-c1cncn1CCO2 [Compound 97A]
4. O=C(NC1CCC(F)(F)CC1)c1ccc2c(c1)-c1cncn1CCO2 [Compound 5A]
5. O=C(N[C@H]1CC[C@H](O[C@H]2C[C@H](F)C2)CC1)c1ccc2c(c1)-c1cncn1CCO2 [Compound 148A]
6. O=C(N[C@H]1CC[C@@H](OCC(F)(F)F)CC1)c1cc(F)c2c(c1)-c1cncn1CCO2 [Compound 156A]
7. CC(C)(CO[C@H]1CC[C@H](NC(=O)c2cc(Cl)c3c(c2)-c2cncn2CCO3)CC1)C(F)(F)F [Compound 170A]
8. CN1CCOc2cc(NC(=O)c3ccc4c(c3)-c3cncn3CCO4)cnc21 [Compound 98A]

> 7.52
6.00 to 7.00
> 7.52
> 7.52
> 7.52
7.00 to 7.52
7.00 to 7.52
> 7.52

###

molecular target: UniProt:P56528; assay: NAD+ cyclase activity assay with mouse recombinant CD38 protein (ε-NAD fluorescence); conditions: 0.6 nM mouse CD38, substrate ε-NAD, 30 min preincubation, fluorescence 300/410 nm
Sequence (P56528 whole entry): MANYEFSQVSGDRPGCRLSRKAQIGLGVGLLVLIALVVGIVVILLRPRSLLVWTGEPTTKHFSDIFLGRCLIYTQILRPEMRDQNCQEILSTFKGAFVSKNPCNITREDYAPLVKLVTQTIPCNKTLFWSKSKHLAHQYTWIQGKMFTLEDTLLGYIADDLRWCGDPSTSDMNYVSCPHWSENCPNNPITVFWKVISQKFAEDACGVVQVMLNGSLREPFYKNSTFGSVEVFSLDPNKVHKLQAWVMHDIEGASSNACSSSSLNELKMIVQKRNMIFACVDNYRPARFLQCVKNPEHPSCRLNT
pIC50: −log10 of the molar value.
Exercise: state measured pIC50 for each of the compounds provided.

Examples with answers:
1. O=C(N[C@@H]1CCCOC1)c1ccc2c(c1)-c1cncn1CCCO2 [Compound 26A]; 7.00 to 8.00
2. O=C(N[C@H]1CC[C@@H](N2CCC(F)(F)C2)CC1)c1ccc2c(c1)-c1cncn1CCO2 [Compound 69A]; 7.00 to 8.00
3. O=C(N[C@H]1CC[C@H](CCO)CC1)c1ccc2c(c1)-c1cncn1CCO2 [Compound 56A]; 8.00 to 9.00

For each of the compounds below, note its pIC50.
1. O=C(N[C@H]1CC[C@H](O[C@H]2C[C@@H](F)C2)CC1)c1ccc2c(c1)-c1cncn1CCO2 [Compound 147A]
2. C[C@@H]1CCCC[C@@H]1NC(=O)c1cc(F)c2c(c1)-c1cncn1CCO2 (relative stereo) [Compound 175A]
3. O=C(NC1CCC1(F)F)c1cc(F)c2c(c1)-c1cncn1CCO2 (centres unmarked) [Compound 140A]

8.00 to 9.00
8.00 to 9.00
> 9.00

For each of the compounds below, note its pIC50.
1. O=C(N[C@H]1CC[C@H](CN2CC(F)(F)C2)CC1)c1ccc2c(c1)-c1cncn1CCO2 [Compound 105A]
2. O=C(N[C@H]1CCCC(F)(F)C1)c1ccc2c(c1)-c1cncn1CCO2 [Compound 117A]

8.00 to 9.00
8.00 to 9.00
